Tested on: FB
Experiment: Euclidean distance of Cell Painting phenotypic profile (signed KS, 77 features) to DMSO centroid (dimensionless distance); 5 or 10 uM (library dependent); higher = stronger phenotypic change vs DMSO (phenoactivity)
Settings: 48 h
PARAMETER: Euclidean distance
Give only the figure.

Use the examples below as a reference point.
# COMPOUND_STRUCTURE_STRING, DATA_VALUE
data = [
    ("CCCN1C[C@H](C)[C@@H](O)[C@](C)(O)[C@@H](CC)OC(=O)[C@H](C)[C@@H](O[C@H]2C[C@@](C)(OC)[C@@H](O)[C@H](C)O2)[C@H](C)[C@@H](O[C@@H]2O[C@H](C)C[C@H](N(C)C)[C@H]2O)[C@](C)(O)C[C@H]1C", 1.12),
    ("c1ccc(-c2nn3c(c2-c2ccnc4cc(OCCN5CCOCC5)ccc24)CCC3)nc1", 1.75),
]

Find Euclidean distance (FB) for the entry `CC(C)C[C@H](NC(=O)[C@H](CCc1ccccc1)NC(=O)CN1CCOCC1)C(=O)N[C@@H](Cc1ccccc1)C(=O)N[C@@H](CC(C)C)C(=O)[C@@]1(C)CO1`
0.729

These data points were gathered from the supplement of paper PMC10127200.
